Can you tell me MIC for the items I'm about to list?
Output spec: scalar in µg/mL, unitless text.

*Q* Query the reported MIC for Escherichia coli ATCC 10536; item: CCn1cc(C(=O)O)c(=O)c2cc(F)c(-n3cccc3)cc21 [Example 2]
*A* 1

*Q* Param readout = MIC; param system = Escherichia coli ATCC 10536; param query = CCn1cc(C(=O)O)c(=O)c2cc(F)c(-n3cccc3)nc21 [Example 4] ; response: value
*A* 0.12

*Q* Lab note: need MIC for CCn1cc(C(=O)O)c(=O)c2ccc(-n3cccc3)nc21 [Example 3] on Escherichia coli ATCC 10536, anyone have it?
*A* 8

*Q* Short answer please: MIC, Escherichia coli ATCC 10536, entry CCn1cc(C(=O)O)c(=O)c2ccc(-n3cccc3)cc21 [Example 1]
*A* 4

*Q* Provide the documented MIC with Escherichia coli ATCC 10536 as the system for CCn1cc(C(=O)O)c(=O)c2cnc(N3CCNCC3)nc21 [Pipemidic acid, reference compound]
*A* 2
